Where do the numbers come from? From patent US8318635B2.

System: wheat (Brigadier)
procedure.details: Visual growth study, phytotoxicity index, chemicals scattered 14 days after sowing
Format: in vivo
test.settings: wheat, 2 leaves stage; treated 14 days after sowing; 14 days after treatment; 0-100 scale; 4-(tert-butyl)benzoic acid 1000 g ai/ha in Examples, 0 in Comparative Examples; herbicide dose per label
measured.attribute: Phytotoxicity index
// return just the number, without any unit appended

molecule: CS(=O)(=O)c1ccc(C(=O)C2C(=O)CCCC2=O)c([N+](=O)[O-])c1
target.or.system: wheat (Brigadier)
measured.attribute: Phytotoxicity index
reported.value: 40

Query string: Tell me its Phytotoxicity index on wheat (Brigadier): CCOC(=O)[C@@H](C)Oc1ccc(Oc2nc3ccc(Cl)cc3o2)cc1
Result string: 40

Query string: Tell me its Phytotoxicity index on wheat (Brigadier): O=C(Nc1ccc(F)cc1F)c1cccnc1Oc1cccc(C(F)(F)F)c1
Result string: 15

Query string: Tell me its Phytotoxicity index on wheat (Brigadier): COc1cc(OC)nc(Oc2cccc(Oc3nc(OC)cc(OC)n3)c2C(=O)O)n1 [compound 19, Bispyribac-sodium]
Result string: 35
